Data origin, for the record: paper PMC12856912

test system: Enterococcus faecalis ATCC 29212; assay: Antibacterial MIC assay, serial dilution; assay type: cell-based; details: CC50 Vero cells / MIC
metric.name: Selectivity index (CC50/MIC) E. faecalis 29212
Give the value as a plain number.

// sample COC(=O)[C@H]1O[C@@H](n2ccc(NC(=O)c3ccc(NC(C)=O)cc3)nc2=O)C=C[C@@H]1NC(=O)C[C@@H](N)CCN(C)C(=N)N , its Selectivity index (CC50/MIC) E. faecalis 29212 was 6.6

The compound identified as CN(CC[C@H](N)CC(=O)N[C@H]1C=C[C@H](n2ccc(NC(=O)c3ccc(NC(=O)[C@@](C)(N)CO)cc3)nc2=O)O[C@@H]1C(N)=O)C(=N)N registered its Selectivity index (CC50/MIC) E. faecalis 29212 at 1.0

Value of measured Selectivity index (CC50/MIC) E. faecalis 29212 for the entry COC(=O)[C@H]1O[C@@H](n2ccc(NC(=O)c3ccc(NC(=O)[C@@](C)(N)CO)cc3)nc2=O)C=C[C@@H]1NC(=O)C[C@@H](N)CCN(C)C(=N)N : 2.3

----------
assay: Cytotoxicity assay (MTS/PMS); assay type: cell-based; conditions: monkey, Vero cells (monkey kidney epithelial cells); 24 h treatment, MTS/PMS, average of three biological replicates; read-out: CC50 against Vero cells
CC50 at 24 h strictly less than 100 µg/mL = YES. Otherwise NO.

Consider the worked cases shown below.
* CC(=O)Nc1ccc(C(=O)Nc2ccn([C@H]3C=C[C@H](NC(=O)C[C@@H](N)CCN(C)C(=N)N)[C@@H](C(N)=O)O3)c(=O)n2)cc1 | YES
* CN(CC[C@H](N)CC(=O)N[C@H]1C=C[C@H](n2ccc(N)nc2=O)O[C@@H]1C(=O)NCCc1ccccc1)C(=N)N [Blastimidine P1, blasticidin S phenethylamide] | NO
* CN(CC[C@H](N)CC(=O)N[C@H]1C=C[C@H](n2ccc(NC(=O)c3ccc(N)cc3)nc2=O)O[C@@H]1C(=O)O)C(=N)N | YES
* CNc1ccc(C(=O)Nc2ccn([C@H]3C=C[C@H](NC(=O)C[C@@H](N)CCN(C)C(=N)N)[C@@H](C(=O)OC)O3)c(=O)n2)cc1 | NO
* CNc1ccc(C(=O)Nc2ccn([C@H]3C=C[C@H](NC(=O)C[C@@H](N)CCN(C)C(=N)N)[C@@H](C(N)=O)O3)c(=O)n2)cc1 | YES

Given COC(=O)[C@H]1O[C@@H](n2ccc(N)nc2=O)C=C[C@@H]1NC(=O)C[C@@H](N)CCN(C)C(=N)N , is recorded CC50 at 24 h strictly lower than 100 µg/mL?
YES

Given CNc1ccc(C(=O)Nc2ccn([C@H]3C=C[C@H](NC(=O)C[C@@H](N)CCN(C)C(=N)N)[C@@H](C(=O)O)O3)c(=O)n2)cc1 , is recorded CC50 at 24 h strictly lower than 100 µg/mL?
NO

Does the reported CC50 at 24 h of the following compound sit strictly below 100 µg/mL? CN(CC[C@H](N)CC(=O)N[C@H]1C=C[C@H](n2ccc(NC(=O)c3ccc(NC(=O)[C@@](C)(N)CO)cc3)nc2=O)O[C@@H]1C(=O)O)C(=N)N
NO

Problem: For the compound CC(=O)Nc1ccc(C(=O)Nc2ccn([C@H]3C=C[C@H](NC(=O)C[C@@H](N)CCN(C)C(=N)N)[C@@H](C(=O)NCCc4ccccc4)O3)c(=O)n2)cc1 , is CC50 at 24 h under 100 µg/mL?
NO

Hello, I'm reviewing records and need to know if CC50 at 24 h of CN(CC[C@H](N)CC(=O)N[C@H]1C=C[C@H](n2ccc(NC(=O)c3ccc(N)cc3)nc2=O)O[C@@H]1C(N)=O)C(=N)N is below 100 µg/mL. Could you check?
YES

# check: CC50 at 24 h < 100 µg/mL for CNc1ccc(C(=O)Nc2ccn([C@H]3C=C[C@H](NC(=O)C[C@@H](N)CCN(C)C(=N)N)[C@@H](C(=O)NCCc4ccccc4)O3)c(=O)n2)cc1
NO

----------
Test system: S. aureus ΔNorA
Assay: Antibacterial MIC assay, serial dilution
Format: cell-based, Staphylococcus aureus
Conditions: CC50 Vero cells / MIC
Protocol: Media and solutions were autoclaved or sterile filtered prior to use and mani pulations were carri ed out in a laminar flow hood. Antibacterial t esting was performed in polypropylene 96-well flat bottom plates. […] Growth controls (wells with inoculated media but no vehicle or test compounds) were included to assess any potential toxicity from the vehicle. […] Inh ibition was determined by measuring the optical density at 600 nm (OD60 0) with a Cytation 3 pl ate read er (BioTek). […]
Consider the following molecules and their measured Selectivity index (CC50/MIC) S. aureus ΔNorA readings.
Response field accepts a number only; no unit should be typed.

- CN(CC[C@H](N)CC(=O)N[C@H]1C=C[C@H](n2ccc(NC(=O)c3ccc(NC(=O)[C@@](C)(N)CO)cc3)nc2=O)O[C@@H]1C(N)=O)C(=N)N: 0.5

Now turn to the next molecule.
Record summary for COC(=O)[C@H]1O[C@@H](n2ccc(NC(=O)c3ccc(NC(=O)[C@@](C)(N)CO)cc3)nc2=O)C=C[C@@H]1NC(=O)C[C@@H](N)CCN(C)C(=N)N : reported Selectivity index (CC50/MIC) S. aureus ΔNorA = 2.3

----------
tested on: MRSA ATCC 43300
metric.name: MIC

Reading of MIC for CN(CC[C@H](N)CC(=O)N[C@H]1C=C[C@H](n2ccc(NC(=O)c3ccc(NC(=O)[C@@](C)(N)CO)cc3)nc2=O)O[C@@H]1C(=O)O)C(=N)N with MRSA ATCC 43300: > 128 µg/mL

----------
system: Methicillin resistant Staphylococcus epidermidis (MRSE) ATCC 35984 NRS101; experiment: Antibacterial MIC assay, serial dilution; type: cell-based; settings: CC50 Vero cells / MIC
In this section, each of the compounds is paired with its reported Selectivity index (CC50/MIC) MRSE 35984.

* CN(CC[C@H](N)CC(=O)N[C@H]1C=C[C@H](n2ccc(NC(=O)c3ccc(N)cc3)nc2=O)O[C@@H]1C(=O)O)C(=N)N | <0.5
* CC(=O)Nc1ccc(C(=O)Nc2ccn([C@H]3C=C[C@H](NC(=O)C[C@@H](N)CCN(C)C(=N)N)[C@@H](C(=O)NCCc4ccccc4)O3)c(=O)n2)cc1 | >16
* CN(CC[C@H](N)CC(=O)N[C@H]1C=C[C@H](n2ccc(NC(=O)c3ccc(NC(=O)[C@@](C)(N)CO)cc3)nc2=O)O[C@@H]1C(=O)NCCc1ccccc1)C(=N)N | >16

CN(CC[C@H](N)CC(=O)N[C@H]1C=C[C@H](n2ccc(N)nc2=O)O[C@@H]1C(=O)O)C(=N)N yielded Selectivity index (CC50/MIC) MRSE 35984 of <0.1

Quick note, Selectivity index (CC50/MIC) MRSE 35984 for CC(=O)Nc1ccc(C(=O)Nc2ccn([C@H]3C=C[C@H](NC(=O)C[C@@H](N)CCN(C)C(=N)N)[C@@H](C(=O)O)O3)c(=O)n2)cc1 landed at <1.6

Reported Selectivity index (CC50/MIC) MRSE 35984 for CNc1ccc(C(=O)Nc2ccn([C@H]3C=C[C@H](NC(=O)C[C@@H](N)CCN(C)C(=N)N)[C@@H](C(=O)NCCc4ccccc4)O3)c(=O)n2)cc1 was >32

Lab book: Selectivity index (CC50/MIC) MRSE 35984 of CNc1ccc(C(=O)Nc2ccn([C@H]3C=C[C@H](NC(=O)C[C@@H](N)CCN(C)C(=N)N)[C@@H](C(=O)O)O3)c(=O)n2)cc1 noted as <1.1

Record CN(CC[C@H](N)CC(=O)N[C@H]1C=C[C@H](n2ccc(NC(=O)c3ccc(N)cc3)nc2=O)O[C@@H]1C(=O)NCCc1ccccc1)C(=N)N [Blastimidine P2] . Reported Selectivity index (CC50/MIC) MRSE 35984: >16

Notebook: CN(CC[C@H](N)CC(=O)N[C@H]1C=C[C@H](n2ccc(NC(=O)c3ccc(NC(=O)[C@@](C)(N)CO)cc3)nc2=O)O[C@@H]1C(=O)O)C(=N)N , Selectivity index (CC50/MIC) MRSE 35984 read as <1.4

----------
// values below are reported Selectivity index (CC50/MIC) S. aureus ΔNorA
tested on: S. aureus ΔNorA; assay: Antibacterial MIC assay, serial dilution; type: cell-based, Staphylococcus aureus; settings: CC50 Vero cells / MIC

* CN(CC[C@H](N)CC(=O)N[C@H]1C=C[C@H](n2ccc(NC(=O)c3ccc(N)cc3)nc2=O)O[C@@H]1C(=O)O)C(=N)N | <0.5
* CC(=O)Nc1ccc(C(=O)Nc2ccn([C@H]3C=C[C@H](NC(=O)C[C@@H](N)CCN(C)C(=N)N)[C@@H](C(=O)NCCc4ccccc4)O3)c(=O)n2)cc1 | >24
* CN(CC[C@H](N)CC(=O)N[C@H]1C=C[C@H](n2ccc(NC(=O)c3ccc(NC(=O)[C@@](C)(N)CO)cc3)nc2=O)O[C@@H]1C(=O)O)C(=N)N | <1.4

Selectivity index (CC50/MIC) S. aureus ΔNorA measured on CC(=O)Nc1ccc(C(=O)Nc2ccn([C@H]3C=C[C@H](NC(=O)C[C@@H](N)CCN(C)C(=N)N)[C@@H](C(=O)O)O3)c(=O)n2)cc1 = <1.6
